Entries and their EC50
# System Tested: human GPR55 (Homo sapiens, UniProt Q9Y2T6)
# Sequence (Q9Y2T6 whole entry): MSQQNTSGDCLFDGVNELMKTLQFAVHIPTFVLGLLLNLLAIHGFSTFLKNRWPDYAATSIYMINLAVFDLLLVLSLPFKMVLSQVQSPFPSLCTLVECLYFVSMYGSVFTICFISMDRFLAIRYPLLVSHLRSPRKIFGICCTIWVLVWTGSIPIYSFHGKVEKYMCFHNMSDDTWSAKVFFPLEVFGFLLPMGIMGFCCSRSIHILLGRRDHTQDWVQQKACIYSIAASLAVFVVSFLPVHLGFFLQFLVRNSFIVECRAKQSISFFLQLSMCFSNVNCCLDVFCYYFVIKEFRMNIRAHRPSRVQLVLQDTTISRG
# Protocol Text: Ca2+ mobilization assay (FLIPR, Calcium5 dye), human GPR55
# Cond: HEK293 cells co-expressing PK-tagged human GPR55 and EA-tagged beta-arrestin; intracellular calcium increase

Worked cases, EC50 given:
{"Compound": "C[C@@H](Nc1ncc(-c2ccc3oc(=O)n(CS(C)(=O)=O)c3c2)nn1)c1ccc(F)cc1", "System Tested": "human GPR55 (Homo sapiens, UniProt Q9Y2T6)", "EC50": "≤ 1000 nM"}
{"Compound": "C[C@@H](Nc1cnc(-c2cncc(C(O)C(F)F)c2)cn1)c1ccc(F)cc1 (single isomer, unassigned) [Example 54b]", "System Tested": "human GPR55 (Homo sapiens, UniProt Q9Y2T6)", "EC50": "≤ 1000 nM"}
{"Compound": "CCn1c(=O)oc2ccc(-c3cnc(N[C@H](C)c4ccc(F)cc4)nn3)cc21", "System Tested": "human GPR55 (Homo sapiens, UniProt Q9Y2T6)", "EC50": "≤ 200 nM"}

Request: Any idea what its EC50 is? The compound is CCc1cncc(-c2ccc(N[C@H](C)c3ccccc3F)nc2)c1
Response: ≤ 1000 nM
